# Target Or Test System: CB2R (hCB2R) (Homo sapiens, UniProt P34972, V36F)
# Construct: full-length hCB2R cDNA in pcDNA3.1, transiently expressed in HEK-293T cells; no tag mentioned
# Sequence (P34972 whole entry V36F): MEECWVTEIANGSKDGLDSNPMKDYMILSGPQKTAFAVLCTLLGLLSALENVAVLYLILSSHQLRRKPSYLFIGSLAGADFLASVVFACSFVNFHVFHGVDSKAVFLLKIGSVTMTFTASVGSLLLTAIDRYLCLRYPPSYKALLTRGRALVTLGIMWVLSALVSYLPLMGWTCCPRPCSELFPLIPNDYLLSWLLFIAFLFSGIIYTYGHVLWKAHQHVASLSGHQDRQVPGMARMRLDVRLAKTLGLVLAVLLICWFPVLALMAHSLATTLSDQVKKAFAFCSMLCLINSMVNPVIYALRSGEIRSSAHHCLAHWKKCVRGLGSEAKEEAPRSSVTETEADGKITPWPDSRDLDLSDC
# Procedure Text: inhibition of forskolin-stimulated cAMP, Lance-Ultra cAMP kit, HTRF
Property Label: pEC50
Value format note: pEC50 is -log10 of concentration (mol/L); just state the number.

// returns reported pEC50 for input CCCC(C)(C)c1ccc2c(c1)OC(C)(C)[C@@H]1CC=C(C)C[C@@H]21 6.80

----------
# Target Or Test System: CB2R (hCB2R) (Homo sapiens, UniProt P34972, V36M)
# Construct: full-length hCB2R cDNA in pcDNA3.1, transiently expressed in HEK-293T cells; no tag mentioned
# Sequence (P34972 whole entry V36M): as the sequence (P34972 whole entry V36F) above, with F36M counted along it
# Procedure Text: inhibition of forskolin-stimulated cAMP, Lance-Ultra cAMP kit, HTRF
Property Label: pEC50
Value format note: pEC50 is -log10 of concentration (mol/L); just state the number.

// returns reported pEC50 for input CCCC(C)(C)c1ccc2c(c1)OC(C)(C)[C@@H]1CC=C(C)C[C@@H]21 7.90

----------
# Target Or Test System: CB2R (hCB2R) (Homo sapiens, UniProt P34972, A282F)
# Construct: full-length hCB2R cDNA in pcDNA3.1, transiently expressed in HEK-293T cells; no tag mentioned
# Sequence (P34972 whole entry A282F): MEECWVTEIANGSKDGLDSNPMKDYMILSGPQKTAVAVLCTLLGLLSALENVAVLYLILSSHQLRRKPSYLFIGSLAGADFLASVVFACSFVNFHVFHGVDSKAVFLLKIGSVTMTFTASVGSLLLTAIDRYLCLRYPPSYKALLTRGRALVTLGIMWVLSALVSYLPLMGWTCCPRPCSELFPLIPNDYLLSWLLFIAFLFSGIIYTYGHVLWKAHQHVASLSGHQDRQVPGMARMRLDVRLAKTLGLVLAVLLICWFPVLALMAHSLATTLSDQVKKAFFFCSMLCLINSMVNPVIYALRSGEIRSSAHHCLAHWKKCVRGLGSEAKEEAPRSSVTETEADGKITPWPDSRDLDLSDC
# Procedure Text: inhibition of forskolin-stimulated cAMP, Lance-Ultra cAMP kit, HTRF
Property Label: pEC50
Value format note: pEC50 is -log10 of concentration (mol/L); just state the number.

// returns reported pEC50 for input CCCC(C)(C)c1ccc2c(c1)OC(C)(C)[C@@H]1CC=C(C)C[C@@H]21 [JWH-133] 6.50
